Molecular target: unrelated Fc-fused recombinant protein
Assay: ELISA, negative control Fc protein
Quick list: ELISA Fc Control (RLU) per entry.
Response body: numeric value in RLU, unit text excluded.

Record excerpt, results attached:
>  <Binder>
ISOP193BR9P1H3 (designed binder, not shown: small tags and cut ends) LPAPKNLVVSRVTEDSARLSWNRLDSEWVAFDSFLIQYQESEKVGEAIVLTVPGSERSYDLTGLKPGTEYTVSIYGVVFRPWLAYNSNPLSAIFTT

>  <Readout Number>
2080

$$$$
>  <Binder>
ISOP193ER9P1A11 (designed binder, not shown: small tags and cut ends) LPAPKNLVVSRVTEDSARLSWTAPDAAFDSFAIQYQEYVAHGEAIVLTVPGSERSYDLTGLKPGTEYHVRISGVKGGGVSWPLSAIFTT

>  <Readout Number>
1200

$$$$
>  <Binder>
ISOP193ER9P1H2 (designed binder, not shown: small tags and cut ends) LPAPKNLVVSRVTEDSARLSWTAPDAAFDSFRISYLEDVYYGEAIVLTVPGSERSYDLTGLKPGTEYHVGIHGVKGGIDSFPLSAIFTT

>  <Readout Number>
1360

$$$$

Now for the binder whose ELISA Fc Control (RLU) we want.
[Q] Assign ELISA Fc Control (RLU) to the following record: ISOP193HR9P1C7 (designed binder, not shown: small tags and cut ends) LPAPKNLVVSRVTEDSARLSWTAPDAAFDSFEIYYLELDSDGEAIVLTVPGSERSYDLTGLKPGTEYIVTIYGVKVCTGSRPLSAIFTT
[A] 71400

Data provenance is patent US20220259289A1.
